- Test system: Staphylococcus aureus
- Format: functional
Can you tell me inhibition (INH) for the items I'm about to list?
Please give a number only; it is taken to be in %.

Request: Which inhibition (INH) value is on record for CC(=O)N[C@@H](Cc1ccc(O)cc1)C(=O)O [ACETYL TYROSINE] ?
Result: 47.1

Request: Quick one: NC(=O)c1ccccc1O [SALICYLAMIDE]
Result: 11.3

Request: Let us now turn to OCCOc1ccccc1 [PHENOXYETHANOL]
Result: 25.1

Request: Moving on to the next molecule: CC(=O)Nc1ccc(O)cc1 [ACETAMINOPHEN]
Result: 10.8

Request: Check OCc1ccccc1 [BENZYL ALCOHOL] too.
Result: 13.8

Request: Entry O=C(O)c1cc(O)c(O)c(O)c1 [GALLIC ACID] please
Result: 8.7
